Would you kindly list T/C for each of these compounds?
System: BDF1 mice, Lewis lung carcinoma iv, survival T/C
Run Description: NCI In Vivo Anticancer Drug Screen. Data for tumor model Lewis Lung Carcinoma (intravenous) in B6D2F1 (BDF1) mice
Recorded Conditions: endpoint: median survival time; dose: 12.5 mg/kg/injection; schedule: Q01DX009 (ip); vehicle: saline; higher = longer survival
Experimental: The antitumor activity of compounds was measured in mice bearing transplantable tumors. Survival or tumor size were measured and the results are expressed as the measurement made in the treated group (T) divided by the measurement made in the vehicle treated control group (C). The tumor model used in this assay is Lewis Lung Carcinoma (intravenous) in B6D2F1 (BDF1) mice
Toxic doses and inconclusive results are not listed.

Problem: Look up T/C for this compound: COC(=O)CC(N)C(=O)O (stereo not drawn)
Result: 115 % of control

Problem: Query (compound): NC1=NC(=O)N2CC12 (stereo not drawn) ; field requested: T/C
Result: 107 % of control

Problem: Item `[Cl][Sn]([c]1ccccc1)[c]1ccccc1` has what recorded T/C?
Result: 98 % of control

Problem: Fill in the blank: the reported T/C of `COc1cc(NCCCCCCCNC(C)C)c2nccc(C)c2c1` is ____.
Result: 98 % of control

Problem: Can you look up the measured T/C of `O=C1CN(CN2CCOCC2)C(=O)CN1CN1CCOCC1` for me?
Result: 118 % of control

Problem: Consider the compound `CCCC(=O)O` and give its measured T/C.
Result: 93 % of control

Problem: Quick one: T/C for `NNC(=S)N/N=C/c1ccccn1` ?
Result: 114 % of control

Problem: T/C for CC(C)C(N)C(=O)Nc1nncs1 (stereo not drawn) ?
Result: 104 % of control

Problem: Suppose we examine the compound O=C1C=CC(n2cc(F)c(=O)[nH]c2=O)O1 (stereo not drawn) ; what T/C value has been reported?
Result: 96 % of control

Problem: Fill in the blank: the reported T/C of `OCCOCCN1CCN(CCCN2c3ccccc3Sc3ccc(C(F)(F)F)cc32)CC1` is ____.
Result: 123 % of control

Problem: Could you tell me which T/C is on file for `OCC1(CO)COC2(CCCCC2)N1` ?
Result: 102 % of control

Problem: Sample `CCN(CC)CCOC(=O)Cc1cccc2c(=O)cc(-c3ccccc3)oc12` — what was its T/C?
Result: 109 % of control

Problem: Reported T/C, compound `NC(=O)c1ncn2c(=O)n(CCCl)nnc12` : ____
Result: 159 % of control

Problem: Query (compound): Cc1ccccc1N(CC1CO1)CC1CO1 (stereo not drawn) ; field requested: T/C
Result: 106 % of control

Problem: State the recorded T/C for this entry: `OCCN1CCN(CC/C=C2/c3ccccc3Sc3ccc(Cl)cc32)CC1`
Result: 100 % of control

Problem: May I ask what T/C has been recorded for `C[Si](C)(C)O/C=C1/CCOC1=O` ?
Result: 116 % of control

Problem: Look up T/C: `[CH3][Sn]([CH3])([Cl])[S]CCN`
Result: 97 % of control

Problem: Look at this compound and give its reported T/C. `Nc1ccn([C@@H](C=O)O[C@@H](C=O)CO)c(=O)n1`
Result: 105 % of control

Problem: Record request: T/C value, item `CCc1nc(N)nc(N)c1-c1ccc(Cl)c(Cl)c1.[Cl][Pd][Cl]`
Result: 114 % of control

Problem: Could you share which T/C value was measured for Nc1nc(/C=C(/O)c2ccccc2)c2ncn(C3OC(CO)C(O)C3O)c2n1 (stereo not drawn) ?
Result: 109 % of control

Problem: Would you kindly share the measured T/C for `CN1CCN(CCCN2c3ccccc3Sc3ccc(C(F)(F)F)cc32)CC1` ?
Result: 109 % of control

Problem: # lookup: T/C of `c1ccc(CCN2CCC(CCc3c[nH]c4ccccc34)CC2)cc1`
Result: 100 % of control

Problem: Data request, read-out T/C, for O=P1(NCCCl)OCCCN1CCCl (stereo not drawn)
Result: 114 % of control

Problem: Can you share its T/C? I mean this compound: COC1OC(CO)C(O)C(NC(=O)N(C)N=O)C1O (stereo not drawn)
Result: 109 % of control

Problem: Which value of T/C has been reported for COC(OC(CO)C(O)S(=O)(=O)O)C(O)S(=O)(=O)O (stereo not drawn) in the records?
Result: 105 % of control

Problem: Which measured T/C value corresponds to `CC(=O)N(C)c1ccc(Nc2cc(C)[nH]c3ccc4ncnc4c23)cc1` ?
Result: 93 % of control

Problem: Tell me the measured T/C of O=C(O)C(CSC(c1ccccc1)(c1ccccc1)c1ccccc1)N=Cc1cccs1 (stereo not drawn) , please.
Result: 107 % of control

Problem: # input compound: `O=C(/C=C(\Cl)C(=O)NO)NO` ; wanted: its T/C
Result: 105 % of control
